Assay: Metabolic stability of test compounds (HLM15')
Format: in vitro ADME, human
Conditions: human liver microsomes 1 mg/ml, 5 μM test compound, 15 min
Define the label as Condition met when Metabolic stability (HLM, % recovery after 15') is strictly less than 70% and as Condition not met in all remaining cases.

query: Is Metabolic stability (HLM, % recovery after 15') strictly under 70% for the entry CC(C)CN(C[C@@H](O)[C@H](Cc1ccccc1)NC(=O)OCc1cncs1)C(=O)c1ccc2ncn(C(C)C)c2c1 [Compound C14] ?
result: Condition met

query: Is Metabolic stability (HLM, % recovery after 15') strictly under 70% for the entry CC(C)CN(C[C@@H](O)[C@H](Cc1ccccc1)NC(=O)OCc1cncs1)C(=O)c1ccc2nc(N(C)C)oc2c1 [Compound C4] ?
result: Condition met

query: Is Metabolic stability (HLM, % recovery after 15') strictly under 70% for the entry CN(C)CCN(C[C@@H](O)[C@H](Cc1ccccc1)NC(=O)OCc1cncs1)C(=O)c1ccc2nc(N3CCCC3)oc2c1 [Compound C17] ?
result: Condition met

query: Is Metabolic stability (HLM, % recovery after 15') strictly under 70% for the entry O=C(N[C@@H](Cc1ccccc1)[C@H](O)CN(CCN1CCCC1)C(=O)c1ccc2nc(N3CCCC3)oc2c1)OCc1cncs1 [Compound C13] ?
result: Condition not met

query: Is Metabolic stability (HLM, % recovery after 15') strictly under 70% for the entry CC(C)CN(C[C@@H](O)[C@H](Cc1ccccc1)NC(=O)OCc1cncs1)C(=O)c1ccc2nc(N3CCCC3)oc2c1 [Compound C2] ?
result: Condition not met

query: Is Metabolic stability (HLM, % recovery after 15') strictly under 70% for the entry CC(C)CN(C[C@@H](O)[C@H](Cc1ccccc1)NC(=O)OCc1cncs1)C(=O)c1ccc2nc(NC3CCN(C)CC3)oc2c1 [Compound C25] ?
result: Condition met

query: Is Metabolic stability (HLM, % recovery after 15') strictly under 70% for the entry CCN(C)c1nc2ccc(C(=O)N(CC(C)C)C[C@@H](O)[C@H](Cc3ccccc3)NC(=O)OCc3cccnc3)cc2o1 [Compound C9] ?
result: Condition met

query: Is Metabolic stability (HLM, % recovery after 15') strictly under 70% for the entry CC(C)CN(C[C@@H](O)[C@H](Cc1ccccc1)NC(=O)OCc1cncs1)C(=O)c1ccc2nc(N3CCOCC3)oc2c1 [Compound C5] ?
result: Condition met

query: Is Metabolic stability (HLM, % recovery after 15') strictly under 70% for the entry CC(C)CN(C[C@@H](O)[C@H](Cc1ccccc1)NC(=O)OCc1cncs1)C(=O)c1ccc2nc(NCCCN(C)C)oc2c1 [Compound C23] ?
result: Condition met

query: Is Metabolic stability (HLM, % recovery after 15') strictly under 70% for the entry CCN(C)c1nc2ccc(C(=O)N(CCN3CCOCC3)C[C@@H](O)[C@H](Cc3ccccc3)NC(=O)OCc3cncs3)cc2o1 [Compound C18] ?
result: Condition met

query: Is Metabolic stability (HLM, % recovery after 15') strictly under 70% for the entry CC(C)CN(C[C@@H](O)[C@H](Cc1ccccc1)NC(=O)OCc1cncs1)C(=O)c1ccc2ncsc2c1 [Compound C7] ?
result: Condition met

query: Is Metabolic stability (HLM, % recovery after 15') strictly under 70% for the entry O=C(N[C@@H](Cc1ccccc1)[C@H](O)CN(CCN1CCOCC1)C(=O)c1ccc2nc(N3CCCC3)oc2c1)OCc1cncs1 [Compound C20] ?
result: Condition met

====

Please respond with reported CC50 at 3 days for every item in the list.
Assay: Toxicity, mock-infected MT4 CMV-EGFP cells
Format: cell-based, human
Details: human, mock-infected MT4 CMV-EGFP cells; read-out: Toxicity MT4 (pCC50) (converted)
// return numeric value only (unit: µM, not printed)

query: Fill in: CC50 at 3 days of CCN(C)c1nc2ccc(C(=O)N(CC3CCCCC3)C[C@@H](O)[C@H](Cc3ccccc3)NC(=O)OCc3cncs3)cc2o1 [Compound C32] is ___
result: 21.4

query: Fill in: CC50 at 3 days of CC(C)CN(C[C@H](O)[C@H](Cc1ccccc1)NC(=O)OCc1cncs1)C(=O)c1ccc2nc(N3CCCC3)oc2c1 [Compound C51] is ___
result: 40.7

====

Target: CYP3A4 (Homo sapiens, UniProt P08684)
Sequence (P08684 whole entry): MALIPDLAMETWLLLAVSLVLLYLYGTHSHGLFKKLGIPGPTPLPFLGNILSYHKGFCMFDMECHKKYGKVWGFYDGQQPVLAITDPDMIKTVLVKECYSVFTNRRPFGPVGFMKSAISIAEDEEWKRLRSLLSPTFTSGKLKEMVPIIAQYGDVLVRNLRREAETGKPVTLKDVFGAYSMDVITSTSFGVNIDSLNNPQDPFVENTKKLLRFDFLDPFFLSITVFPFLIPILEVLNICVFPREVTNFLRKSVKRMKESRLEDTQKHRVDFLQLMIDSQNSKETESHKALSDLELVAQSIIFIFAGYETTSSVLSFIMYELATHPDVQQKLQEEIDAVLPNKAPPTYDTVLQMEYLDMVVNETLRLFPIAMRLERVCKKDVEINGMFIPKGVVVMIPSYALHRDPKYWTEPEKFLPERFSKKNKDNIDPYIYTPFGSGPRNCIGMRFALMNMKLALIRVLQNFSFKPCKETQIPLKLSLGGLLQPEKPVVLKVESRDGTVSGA
Experiment: CYP450 inhibition CDNA-CYP3A4-BQ
Conditions: 10 μM test compound, substrate BQ 60 μM, 30 min
ASSAY ENDPOINT: Cyp450 inhibition: CDNA-CYP3A4-BQ (% inhibition) (%)
// return numeric value only (unit: %, not printed)

query: Fill in: Cyp450 inhibition: CDNA-CYP3A4-BQ (% inhibition) of `CC(C)(O)CN(C[C@@H](O)[C@H](Cc1ccccc1)NC(=O)OCc1cncs1)C(=O)c1ccc2nc(N3CCCC3)oc2c1` is ___
result: 79

query: Fill in: Cyp450 inhibition: CDNA-CYP3A4-BQ (% inhibition) of `CN(C)CCN(C[C@@H](O)[C@H](Cc1ccccc1)NC(=O)OCc1cncs1)C(=O)c1ccc2nc(N3CCCC3)oc2c1` is ___
result: 79

query: Fill in: Cyp450 inhibition: CDNA-CYP3A4-BQ (% inhibition) of `CN(C[C@@H](O)[C@H](Cc1ccccc1)NC(=O)OCc1cncs1)C(=O)c1ccc2nc(N3CCCC3)oc2c1` is ___
result: 81

query: Fill in: Cyp450 inhibition: CDNA-CYP3A4-BQ (% inhibition) of `CC(C)CN(C[C@@H](O)[C@H](Cc1ccccc1)NC(=O)OCc1cncs1)C(=O)c1ccc2nc(NC3CCN(C)CC3)oc2c1` is ___
result: 71

====

Target: CYP3A4 (Homo sapiens, UniProt P08684)
Test: CYP450 inhibition CDNA-CYP3A4-BQ
Settings: 10 μM test compound, substrate BQ 60 μM, 30 min
Returns one of T or F; T when Cyp450 inhibition: CDNA-CYP3A4-BQ (% inhibition) is >= 80%.

query: Determine whether measured Cyp450 inhibition: CDNA-CYP3A4-BQ (% inhibition) meets or exceeds 80% for `CC(C)CN(C[C@@H](O)[C@H](Cc1ccccc1)NC(=O)OCc1cncs1)C(=O)c1ccc2nc(-c3ccncc3)oc2c1`
result: T

query: Determine whether measured Cyp450 inhibition: CDNA-CYP3A4-BQ (% inhibition) meets or exceeds 80% for `O=C(N[C@@H](Cc1ccccc1)[C@H](O)CN(CC1CCC(F)(F)CC1)C(=O)c1ccc2nc(N3CCCC3)oc2c1)OCc1cncs1`
result: T

query: Determine whether measured Cyp450 inhibition: CDNA-CYP3A4-BQ (% inhibition) meets or exceeds 80% for `O=C(N[C@@H](Cc1ccccc1)[C@H](O)CN(CCN1CCCC1)C(=O)c1ccc2nc(N3CCCC3)oc2c1)OCc1cncs1`
result: F

====

Experiment: Metabolic stability of test compounds (HLM15')
Type: in vitro ADME, human
Details: pH 7.4; human liver microsomes 1 mg/ml, 5 μM test compound, 15 min; read-out: Metabolic stability (HLM, % recovery after 15')
Define the label as Criterion met when recovery at 15 min, 5 μM is strictly less than 60% and as Criterion not met in all remaining cases.

query: Is recovery at 15 min, 5 μM strictly under 60% for the entry `CCN(C)c1nc2ccc(C(=O)N(CC(C)C)C[C@@H](O)[C@H](Cc3ccccc3)NC(=O)OCc3ccncc3)cc2o1` ?
result: Criterion met

query: Is recovery at 15 min, 5 μM strictly under 60% for the entry `C#CCN(C[C@@H](O)[C@H](Cc1ccccc1)NC(=O)OCc1cncs1)C(=O)c1ccc2nc(N(C)CC)oc2c1` ?
result: Criterion met

query: Is recovery at 15 min, 5 μM strictly under 60% for the entry `CCN(C)c1nc2ccc(C(=O)N(CC(C)C)C[C@@H](O)[C@H](Cc3ccc(F)cc3)NC(=O)OCc3cncs3)cc2o1` ?
result: Criterion not met

query: Is recovery at 15 min, 5 μM strictly under 60% for the entry `CCN(C)c1nc2ccc(C(=O)N(CC(C)C)C[C@@H](O)[C@H](Cc3ccccc3)NC(=O)OCc3cncs3)cc2o1` ?
result: Criterion not met

query: Is recovery at 15 min, 5 μM strictly under 60% for the entry `CCN(C)c1nc2ccc(C(=O)N(CC3CCCCC3)C[C@@H](O)[C@H](Cc3ccccc3)NC(=O)OCc3cncs3)cc2o1` ?
result: Criterion met

query: Is recovery at 15 min, 5 μM strictly under 60% for the entry `CC(C)CN(C[C@@H](O)[C@H](Cc1ccccc1)NC(=O)OCc1cncs1)C(=O)c1ccc2nc(N3CCN(C)CC3)oc2c1` ?
result: Criterion met

query: Is recovery at 15 min, 5 μM strictly under 60% for the entry `CCN(C)c1nc2ccc(C(=O)N(CC(C)C)C[C@H](O)[C@H](Cc3ccccc3)NC(=O)OCc3cncs3)cc2o1` ?
result: Criterion not met

query: Is recovery at 15 min, 5 μM strictly under 60% for the entry `CCN(C[C@@H](O)[C@H](Cc1ccccc1)NC(=O)OCc1cncs1)C(=O)c1ccc2nc(N(C)CC)oc2c1` ?
result: Criterion met

query: Is recovery at 15 min, 5 μM strictly under 60% for the entry `CC(C)CN(C[C@@H](O)[C@H](Cc1ccccc1)NC(=O)OCc1cncs1)C(=O)c1ccc2nc(N)sc2c1` ?
result: Criterion not met

query: Is recovery at 15 min, 5 μM strictly under 60% for the entry `CC(C)CN(C[C@@H](O)[C@H](Cc1ccccc1)NC(=O)OCc1cncs1)C(=O)c1ccc2nc(C(C)C)oc2c1` ?
result: Criterion not met

query: Is recovery at 15 min, 5 μM strictly under 60% for the entry `CC(C)CN(C[C@@H](O)[C@H](Cc1ccccc1)NC(=O)OCc1cncs1)C(=O)c1ccc2ncn(C)c2c1` ?
result: Criterion met

query: Is recovery at 15 min, 5 μM strictly under 60% for the entry `CC(C)CN(C[C@@H](O)[C@H](Cc1ccccc1)NC(=O)OCc1cncs1)C(=O)c1ccc2nc(N3CCCCC3)oc2c1` ?
result: Criterion not met

query: Is recovery at 15 min, 5 μM strictly under 60% for the entry `CC(C)CN(C[C@H](O)[C@H](Cc1ccccc1)NC(=O)OCc1cncs1)C(=O)c1ccc2nc(N3CCCC3)oc2c1` ?
result: Criterion not met

query: Is recovery at 15 min, 5 μM strictly under 60% for the entry `CC(C)CN(C[C@@H](O)[C@H](Cc1ccccc1)NC(=O)OCc1cncs1)C(=O)c1ccc2ncoc2c1` ?
result: Criterion not met
